Please respond with reported IC50 for every item in the list.
molecular target: UniProt P35869; experiment: In Vitro Assay 1: XRE-luciferase reporter assay, antagonism in human cell line (HepG2); details: Assay 1: AhR-Luc Human Antagonism (IC50, nM), unmarked values: kynurenine 200 μM, 6 hours

Worked examples, 4 molecules total:
>>> test_value("OCC1CCN(c2cc(-c3ccc(N4CCOCC4)nc3)nc(-c3cccnc3)n2)CC1")
"< 10 nM"
>>> test_value("OC[C@@H]1CN(c2cc(-c3ccc(Cl)cc3)nc(-c3cccnc3)n2)C[C@H]1O")
"< 10 nM"
>>> test_value("OCC1CCN(c2cc(-c3ccc(Cl)c(O)c3)nc(-c3cccnc3)n2)CC1")
"10 to 100 nM"
>>> test_value("OC[C@@H]1CCN(c2cc(-c3ccc(Cl)cc3)nc(-c3cccnc3)n2)C[C@H]1O")
"< 10 nM"

We now examine a further molecule.
Kindly note the recorded IC50 for "CC(=O)N[C@@H]1CN(c2cc(-c3ccc(Cl)cc3)nc(-c3cccnc3)n2)C[C@H]1O" , which is 10 to 100 nM

---

molecular target: AhR (Homo sapiens, UniProt P35869); experiment: In Vitro Assay 1: XRE-luciferase reporter assay, antagonism in human cell line (HepG2); details: Assay 1: AhR-Luc Human Antagonism (IC50, nM), values marked *: kynurenine 50 μM, 6 hours
Sequence (P35869 11-848): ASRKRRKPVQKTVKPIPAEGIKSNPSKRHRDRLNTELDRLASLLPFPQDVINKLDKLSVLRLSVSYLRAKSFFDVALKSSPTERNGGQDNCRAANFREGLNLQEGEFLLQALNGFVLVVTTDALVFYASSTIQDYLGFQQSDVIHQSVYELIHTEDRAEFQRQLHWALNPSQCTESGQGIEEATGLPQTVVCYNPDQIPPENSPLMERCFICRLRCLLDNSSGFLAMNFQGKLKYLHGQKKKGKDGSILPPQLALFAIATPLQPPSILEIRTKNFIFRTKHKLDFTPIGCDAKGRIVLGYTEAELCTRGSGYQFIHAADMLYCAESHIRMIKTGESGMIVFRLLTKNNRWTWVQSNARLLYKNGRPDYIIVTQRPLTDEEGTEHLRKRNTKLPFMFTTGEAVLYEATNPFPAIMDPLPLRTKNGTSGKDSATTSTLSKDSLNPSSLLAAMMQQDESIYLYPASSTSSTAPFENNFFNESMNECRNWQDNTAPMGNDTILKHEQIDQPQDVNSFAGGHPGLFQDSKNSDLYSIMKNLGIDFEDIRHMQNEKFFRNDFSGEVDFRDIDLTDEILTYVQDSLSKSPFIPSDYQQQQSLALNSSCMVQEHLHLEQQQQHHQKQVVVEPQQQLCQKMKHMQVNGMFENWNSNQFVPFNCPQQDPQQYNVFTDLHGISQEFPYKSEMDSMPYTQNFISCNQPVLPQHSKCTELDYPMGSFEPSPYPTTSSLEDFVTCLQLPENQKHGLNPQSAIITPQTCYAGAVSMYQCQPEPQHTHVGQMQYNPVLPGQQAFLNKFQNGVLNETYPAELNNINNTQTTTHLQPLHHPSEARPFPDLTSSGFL
READOUT_LABEL: IC50

>>> test_value("OCCNc1cc(-c2ccc(Cl)cc2)nc(-c2cccnc2)n1 [Example 6]")
"100 to 1000 nM"
>>> test_value("COCCN1CCC(CNc2cc(-c3ccc(Cl)cc3)nc(-c3cccnc3)n2)CC1 [Example 170]")
"10 to 100 nM"
>>> test_value("C[C@H](CO)Nc1cc(-c2ccc(Cl)cc2)nc(-c2cccnc2)n1 [Example 11]")
"10 to 100 nM"
>>> test_value("NC[C@@H]1CCCN(c2cc(-c3ccc(Cl)cc3)nc(-c3cccnc3)n2)C1 [Example 63]")
"> 1000 nM"
>>> test_value("CC(CO)N1CCN(c2cc(-c3ccc(Cl)cc3)nc(-c3cccnc3)n2)CC1 (stereo not shown) [Example 224]")
"< 10 nM"
>>> test_value("Cn1cc(-c2nc(-c3ccc(Cl)cc3)cc(N3CC[C@H](O)C3)n2)cn1 [Example 183]")
"100 to 1000 nM"

We now examine a further compound.
Kindly note the recorded IC50 for CN(C)C1CCN(c2cc(-c3ccc(Cl)cc3)nc(-c3cccnc3)n2)C1 (stereo not shown) [Example 164] , which is 100 to 1000 nM

---

target: AhR (Homo sapiens, UniProt P35869); assay: In Vitro Assay 1: XRE-luciferase reporter assay, antagonism in human cell line (HepG2); settings: Assay 1: AhR-Luc Human Antagonism (IC50, nM), values marked *: kynurenine 50 μM, 6 hours
Please respond with reported IC50 for every item in the list.

Worked examples, 3 molecules total:
>>> test_value("Cn1cc(-c2nc(-c3ccc(Cl)cc3)cc(N3CC[C@@H](O)C3)n2)cn1 [Example 186]")
"> 1000 nM"
>>> test_value("OCC1CCCCN1c1cc(-c2ccc(Cl)cc2)nc(-c2cccnc2)n1 (stereo not drawn) [Example 36]")
"10 to 100 nM"
>>> test_value("OCC1CCCN(c2cc(-c3ccc(Cl)cc3)nc(-c3cccnc3)n2)C1 (stereo not drawn) [Example 40]")
"10 to 100 nM"

Please state IC50 for every molecule in the list that follows.
1. CCCNc1cc(-c2ccc(Cl)cc2)nc(-c2cccnc2)n1 [Example 22]
2. O[C@@H]1CCN(c2cc(-c3ccc(Cl)cc3)nc(-c3cccnc3)n2)C[C@@H]1F [Example 219]
3. OCC(O)CNc1cc(-c2ccc(Cl)cc2)nc(-c2cccnc2)n1 (stereo not drawn) [Example 10]
4. OC1CCN(c2cc(-c3ccc(Cl)cc3)nc(-c3cccnc3)n2)CC1 [Example 41]
5. CC(OC(=O)C(F)(F)F)C1CCN(c2cc(-c3ccc(Cl)cc3)nc(-c3cccnc3)n2)CC1 (stereo not drawn) [Example 172]
6. Clc1ccc(-c2cc(NC3CCNCC3)nc(-c3cccnc3)n2)cc1 [Example 54]

["100 to 1000 nM", "< 10 nM", "100 to 1000 nM", "< 10 nM", "< 10 nM", "> 1000 nM"]

---

target: AhR (Homo sapiens); test: In Vitro Assay 1: XRE-luciferase reporter assay, antagonism in human cell line (HepG2); conditions: Assay 1: AhR-Luc Human Antagonism (IC50, nM), values marked *: kynurenine 50 μM, 6 hours
Please respond with reported IC50 for every item in the list.

Worked examples, 4 compounds total:
>>> test_value("C[C@@H](O)[C@@H](C)Nc1cc(-c2ccc(Cl)cc2)nc(-c2cccnc2)n1 [Example 144]")
"10 to 100 nM"
>>> test_value("Clc1ccc(-c2cc(N3CCC4(C=Cc5ccccc54)CC3)nc(-c3cccnc3)n2)cc1 [Example 125]")
"100 to 1000 nM"
>>> test_value("CN1CCN(C2CCN(c3cc(-c4ccc(Cl)cc4)nc(-c4cccnc4)n3)C2)CC1 (stereo not drawn) [Example 122]")
"10 to 100 nM"
>>> test_value("CC1CCN(c2cc(-c3ccc(Cl)cc3)nc(-c3cnn(C)c3)n2)CC1 [Example 180]")
"> 1000 nM"

Please state IC50 for every compound in the list that follows.
1. CN(C)CCCNc1cc(-c2ccc(Cl)cc2)nc(-c2cccnc2)n1 [Example 20]
2. Clc1ccc(-c2cc(N3CCN(CCN4CCOCC4)CC3)nc(-c3cccnc3)n2)cc1 [Example 91]
3. CC1CCCCN1c1cc(-c2ccc(Cl)cc2)nc(-c2cccnc2)n1 (stereo not drawn) [Example 47]
4. Clc1ccc(-c2cc(NCCN3CCCCC3)nc(-c3cccnc3)n2)cc1 [Example 149]
5. CCNc1cc(-c2ccc(Cl)cc2)nc(-c2cccnc2)n1 [Example 21]
6. CCC1CCCN(c2cc(-c3ccc(Cl)cc3)nc(-c3cccnc3)n2)C1 (stereo not drawn) [Example 53]
7. O[C@@H]1CC[C@H](Nc2cc(-c3ccc(Cl)cc3)nc(-c3cccnc3)n2)C1 [Example 214]

["> 1000 nM", "10 to 100 nM", "> 1000 nM", "> 1000 nM", "100 to 1000 nM", "> 1000 nM", "10 to 100 nM"]

Please state IC50 for every compound in the list that follows.
1. O[C@@H]1CNC[C@@H]1Nc1cc(-c2ccc(Cl)cc2)nc(-c2cccnc2)n1 [Example 133]
2. COC(=O)[C@H]1C[C@@H](Nc2cc(-c3ccc(Cl)cc3)nc(-c3cccnc3)n2)CN1 [Example 207]
3. CC(C)[C@H](CO)Nc1cc(-c2ccc(Cl)cc2)nc(-c2cccnc2)n1 [Example 14]
4. Clc1ccc(-c2cc(N3CCN(c4ccc(Cl)c(Cl)c4)CC3)nc(-c3cccnc3)n2)cc1 [Example 119]
5. COC1CCN(c2cc(-c3ccc(Cl)cc3)nc(-c3cccnc3)n2)CC1 [Example 45]
6. CC(C)(CO)Nc1cc(-c2ccc(Cl)cc2)nc(-c2cccnc2)n1 [Example 4]

1: > 1000 nM; 2: > 1000 nM; 3: > 1000 nM; 4: > 1000 nM; 5: 10 to 100 nM; 6: 100 to 1000 nM

Kindly note the recorded IC50 for Clc1ccc(-c2cc(N3CCC(N4CCOCC4)C3)nc(-c3cccnc3)n2)cc1 (stereo not drawn) [Example 199] , which is 100 to 1000 nM

---

molecular target: AhR (Homo sapiens, UniProt P35869); assay: In Vitro Assay 1: XRE-luciferase reporter assay, antagonism in human cell line (HepG2); settings: Assay 1: AhR-Luc Human Antagonism (IC50, nM), values marked *: kynurenine 50 μM, 6 hours
READOUT_LABEL: IC50

Please state IC50 for every compound in the list that follows.
1. O=C1CN(c2cc(-c3ccc(Cl)cc3)nc(-c3cccnc3)n2)CCN1 [Example 94]
2. CC(=O)NC1CCN(c2cc(-c3ccc(Cl)cc3)nc(-c3cccnc3)n2)C1 (stereo not drawn) [Example 143]
3. Clc1ccc(-c2cc(N3CCN(C/C=C/c4ccccc4)CC3)nc(-c3cccnc3)n2)cc1 [Example 93]
4. O[C@H]1CCN(c2cc(-c3ccc(Cl)cc3)nc(-c3cccnc3)n2)C[C@@H]1F [Example 222]
5. CC(O)C(C)Nc1cc(-c2ccc(Cl)cc2)nc(-c2cccnc2)n1 (stereo not drawn) [Example 145]
6. Clc1ccc(-c2cc(NCCN3CCCC3)nc(-c3cccnc3)n2)cc1 [Example 129]
7. OC1(c2cccc(C(F)(F)F)c2)CCN(c2cc(-c3ccc(Cl)cc3)nc(-c3cccnc3)n2)CC1 [Example 151]
8. Cn1cc(-c2nc(-c3ccc(Cl)cc3)cc(N3CCC(CCO)CC3)n2)cn1 [Example 178]

1: 10 to 100 nM; 2: < 10 nM; 3: 10 to 100 nM; 4: < 10 nM; 5: 100 to 1000 nM; 6: > 1000 nM; 7: > 1000 nM; 8: 100 to 1000 nM

Please state IC50 for every compound in the list that follows.
1. CC(=O)C1(c2ccccc2)CCN(c2cc(-c3ccc(Cl)cc3)nc(-c3cccnc3)n2)CC1 [Example 155]
2. Cn1cc(-c2nc(-c3ccc(Cl)cc3)cc(N3CCC(CO)CC3)n2)cn1 [Example 177]
3. O=C(O)C1CN(c2cc(-c3ccc(Cl)cc3)nc(-c3cccnc3)n2)CCN1 (stereo not drawn) [Example 111]
4. F[C@@H]1CCN(c2cc(-c3ccc(Cl)cc3)nc(-c3cccnc3)n2)C1 [Example 139]

["> 1000 nM", "10 to 100 nM", "> 1000 nM", "10 to 100 nM"]

Please state IC50 for every compound in the list that follows.
1. Clc1ccc(-c2cc(N[C@@H]3COC[C@H]3N3CCCC3)nc(-c3cccnc3)n2)cc1 (relative stereo) [Example 201]
2. O[C@H]1CC[C@@H](Nc2cc(-c3ccc(Cl)cc3)nc(-c3cccnc3)n2)C1 [Example 162]

["> 1000 nM", "< 10 nM"]

Please state IC50 for every compound in the list that follows.
1. Clc1ccc(-c2cc(N3CCSCC3)nc(-c3cccnc3)n2)cc1 [Example 74]
2. Clc1ccc(-c2cc(NCC3CCNCC3)nc(-c3cccnc3)n2)cc1 [Example 56]
3. Clc1ccc(-c2cc(NCc3cccnc3)nc(-c3cccnc3)n2)cc1 [Example 32]
4. Clc1ccc(-c2cc(N3CCC(N4CCOCC4)C3)nc(-c3cccnc3)n2)cc1 (stereo not drawn) [Example 73]
5. Clc1ccc(-c2cc(NCc3ccncc3)nc(-c3cccnc3)n2)cc1 [Example 33]

1. 100 to 1000 nM
2. 100 to 1000 nM
3. 100 to 1000 nM
4. > 1000 nM
5. 100 to 1000 nM

Please state IC50 for every compound in the list that follows.
1. CC[C@H](CO)Nc1cc(-c2ccc(Cl)cc2)nc(-c2cnn(C)c2)n1 [Example 188]
2. O[C@H]1CCC[C@@H]1Nc1cc(-c2ccc(Cl)cc2)nc(-c2cccnc2)n1 [Example 67]

1: 100 to 1000 nM; 2: 100 to 1000 nM
